Values from paper PMC8733272

system_under_test: WT-Parkin (Homo sapiens, UniProt O60260)
Sequence (O60260 whole entry): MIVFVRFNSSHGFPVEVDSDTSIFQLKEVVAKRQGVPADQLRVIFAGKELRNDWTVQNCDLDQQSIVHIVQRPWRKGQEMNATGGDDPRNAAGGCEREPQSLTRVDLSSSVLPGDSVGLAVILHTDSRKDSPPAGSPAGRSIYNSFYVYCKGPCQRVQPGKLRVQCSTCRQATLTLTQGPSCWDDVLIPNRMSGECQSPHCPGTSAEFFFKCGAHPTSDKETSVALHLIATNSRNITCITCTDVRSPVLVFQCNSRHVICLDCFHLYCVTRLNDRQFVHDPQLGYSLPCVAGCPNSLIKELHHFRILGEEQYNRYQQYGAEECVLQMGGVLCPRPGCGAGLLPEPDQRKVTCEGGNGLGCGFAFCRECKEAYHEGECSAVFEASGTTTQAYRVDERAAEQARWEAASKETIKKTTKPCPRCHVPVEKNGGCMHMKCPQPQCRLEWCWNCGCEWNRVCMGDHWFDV
measurement_protocol: Parkin catalytic poly-auto-Ub TR-FRET assay
Format: biochemical
applied_conditions: EC50 (μM), WT-Parkin, 5 μM pUb, averaged technical replicates n = 2
reported_property: EC50

Asked: Give the value of EC50 reported for the following: CO[C@H](C(=O)N1Cc2c(-c3ccc(C(=O)N4CCCc5ccccc54)cn3)cnn2C[C@H]1C(C)C)c1cnn(C)c1 (single isomer, unassigned)
Given back: < 0.2 µM
